Origin of measurements: patent EP1203770A1

// values below are reported inhibition at 33 µM
Target: HIV-1 protease (Human immunodeficiency virus type 1 group M subtype B, UniProt P04585)
Construct: The protease (or proteinase), consisting of only 99 amino acids, is among the smallest enzymes known
Assay: In vitro HIV protease inhibitory assay (HIV Protease FITC Assay)
Assay type: biochemical
Settings: HIV-1 Dose 33.000 uM; read-out: HIV-1 Protease % Inhib
Answer with a number only, understood to be in %.

// below: answered molecules
- Cc1nc(CCc2cc(O)c(C(c3ccccc3)C3CC3)c(=O)o2)cs1 (stereo not drawn): 96
- CCC(Cc1ccccc1)c1oc(=O)c(C(CC)c2ccccc2)c(O)c1Br (stereo not drawn): 102
- O=c1oc(CCCCl)cc(O)c1C(c1ccccc1)C1CC1 (stereo not drawn): 117
- COCCOCCC(Cc1ccccc1)c1cc(O)c(C(c2ccccc2)C2CC2)c(=O)o1 (stereo not drawn): 109
- CCCc1oc(=O)c(C(c2ccccc2)C2CC2)c(O)c1CCOCCOC (stereo not drawn): 107

Ask: Requested read-out: inhibition at 33 µM. Entry: CCC(CC1CCOC1)c1cc(O)c(C(c2ccccc2)C2CC2)c(=O)o1 (stereo not drawn)
Reply: 114

Ask: Requested read-out: inhibition at 33 µM. Entry: CCC(Cc1ccccc1)c1cc(O)c(C(c2cccc(NC(=O)OCc3ccccc3)c2)C2CC2)c(=O)o1 (stereo not drawn)
Reply: 77.2

Ask: Requested read-out: inhibition at 33 µM. Entry: O=c1oc(CCc2ccccn2)cc(O)c1C(c1ccccc1)C1CC1 (stereo not drawn)
Reply: 93.7

Ask: Requested read-out: inhibition at 33 µM. Entry: CCC(CCOCCOC)c1cc(O)c(C(c2ccccc2)C2CC2)c(=O)o1 (stereo not drawn)
Reply: 115

---

Target: HIV-1 protease (Human immunodeficiency virus type 1 group M subtype B, UniProt P04585)
Construct: The protease (or proteinase), consisting of only 99 amino acids, is among the smallest enzymes known
Assay: In vitro HIV protease inhibitory assay (HIV Protease FITC Assay)
Type: biochemical
Settings: HIV-1 Dose 30.000 uM; read-out: HIV-1 Protease % Inhib
// values below are reported inhibition at 30 µM
Answer with a number only, understood to be in %.

// below: answered compounds
- CCC(Cc1ccccc1)c1cc(O)c(C(c2cccc(NC(=O)CC[C@H](NC(=O)OCc3ccccc3)C(=O)OCc3ccccc3)c2)C2CC2)c(=O)o1 (stereo partly shown): 35.5
- CCC(CCCl)c1cc(O)c(C(c2ccccc2)C2CC2)c(=O)o1 (stereo not shown): 108
- O=C1OC(Cc2ccccc2)(c2ccccc2)CC(O)=C1C(/C=C/c1ccccc1)c1ccccc1 (stereo not shown): 60.6
- CCC(C1=C(O)CC(CCc2ccccc2)(CC(C)C)OC1=O)c1ccccc1 (stereo not shown): 71.1
- CCC(CC1CCCN1S(=O)(=O)c1ccc(C)cc1)c1cc(O)c(C(c2ccccc2)C2CC2)c(=O)o1 (stereo not shown): 81.1

Ask: Requested read-out: inhibition at 30 µM. Entry: O=c1oc(C(CC2CC2)CC2CCCOC2)cc(O)c1C(c1ccccc1)C1CC1 (stereo not shown)
Reply: 102

Ask: Requested read-out: inhibition at 30 µM. Entry: CCC(CC1CCN(S(=O)(=O)c2ccc(C)cc2)CC1)c1cc(O)c(C(c2ccccc2)C2CC2)c(=O)o1 (stereo not shown)
Reply: 17
